# Assayed System: V-ATPase
# Assay Procedure: acridine orange quenching (proton-pumping function of V-ATPase) in isolated HEK293 vesicles
# Settings: read-out: AO Quenching IC50
Reported Endpoint: IC50 (nM)
All answers are understood in nM, so give the number only.

What is its IC50 for V-ATPase? Entry: COc1cc2c(OCCCN3CCN(CCO)CC3)c3c(c(-c4ccc5c(c4)OCO5)c2cc1OC)C(=O)OC3
61
